- Test system: goat-anti-mouse IgG aggregate
- Test protocol: Fluorescence enhancement (aggregate/native IgG) in the presence of excipients
- Type: binding
- Run conditions: Ammonium Sulfate, 10 mM; 2.8 μM IgG, 0.625 μM dye
Attribute measured: Fluorescence enhancement (aggregate/native IgG) (fold)
Give the value, in units of fold, as a plain number.

Incoming: Give the reported value of Fluorescence enhancement (aggregate/native IgG) for this record: Cc1ccc2c(c1)sc(-c1ccc(N(C)C)cc1)[n+]2C.[Cl-] [Thioflavin-T, Thioflavin T, reference compound]
Outgoing: 2.8

Incoming: Give the reported value of Fluorescence enhancement (aggregate/native IgG) for this record: CCN(CC)c1ccc(/C=C/c2cc[n+](CCCCCCCCCC[n+]3ccc(/C=C/c4ccc(N(CC)CC)cc4)c(C)c3)cc2C)cc1
Outgoing: 12.4

Incoming: Give the reported value of Fluorescence enhancement (aggregate/native IgG) for this record: Cc1c[n+](CCCCCCCCCC[n+]2ccc(/C=C/c3ccc(N(C)C)cc3)c(C)c2)ccc1/C=C/c1ccc(N(C)C)cc1
Outgoing: 15.6

Incoming: Give the reported value of Fluorescence enhancement (aggregate/native IgG) for this record: CN(C)c1ccc(/C=C/c2cc[n+](CCCCCC[n+]3ccc(/C=C/c4ccc(N(C)C)cc4)cc3)cc2)cc1.CS(=O)(=O)[O-].CS(=O)(=O)[O-]
Outgoing: 15.4

* * *

The following compounds are shown together with reported Dye freely dissolved in buffer: Excitation wavelength values.
- Test protocol: Fluorescence excitation and emission spectra of dye freely dissolved in buffer
- Format: physicochemical
- Run conditions: 50 mM Tris-HCl, pH 7.8, 10 μM dye, room temperature
- Method: Fluorescent readings were carried out in 50 mM Tris-HCl, pH 7.8 using 10 μM dye. […] Fluorescence excitation and emission spectra were collected on a Cary Eclipse fluorescence spectrophotometer (Varian, Australia). Fluorescence spectra were measured with excitation and emission slit widths set to 5 nm, and at a constant PMT voltage. Spectroscopic measurements were performed in standard quartz cells. All measurements were made at the respective excitation maxima of each dye. […]
Give the value, in units of nm, as a plain number.

Sample answers from the record:
{"Compound": "Cc1c[n+](CCCCCCCCCC[n+]2ccc(/C=C/c3ccc(N(C)C)cc3)c(C)c2)ccc1/C=C/c1ccc(N(C)C)cc1", "Numeric result": 471}
{"Compound": "CN(C)c1ccc(/C=C/c2cc[n+](CCCCCC[n+]3ccc(/C=C/c4ccc(N(C)C)cc4)cc3)cc2)cc1.CS(=O)(=O)[O-].CS(=O)(=O)[O-]", "Numeric result": 485}
{"Compound": "CCN(CC)c1ccc(/C=C/c2cc[n+](CCCCCCCCCC[n+]3ccc(/C=C/c4ccc(N(CC)CC)cc4)c(C)c3)cc2C)cc1", "Numeric result": 485}
{"Compound": "CCN(CC)c1ccc(/C=C/c2cc[n+](CCOCC[n+]3ccc(/C=C/c4ccc(N(CC)CC)cc4)cc3)cc2)cc1.[I-].[I-]", "Numeric result": 502}

Incoming: Give the reported value of Dye freely dissolved in buffer: Excitation wavelength for this record: CCN(CC)c1ccc(/C=C/c2cc[n+](CCCC[n+]3ccc(/C=C/c4ccc(N(CC)CC)cc4)cc3)cc2)cc1.[I-].[I-]
Outgoing: 500

Incoming: Give the reported value of Dye freely dissolved in buffer: Excitation wavelength for this record: Cc1ccc2c(c1)sc(-c1ccc(N(C)C)cc1)[n+]2C.[Cl-] [Thioflavin-T, Thioflavin T, reference compound]
Outgoing: 400

* * *

- Test system: goat-anti-mouse IgG aggregate
- Test protocol: Fluorescence enhancement (aggregate/native IgG) in the presence of excipients
- Type: binding
- Run conditions: Mannitol, 100 mM; 2.8 μM IgG, 0.625 μM dye
Attribute measured: Fluorescence enhancement (aggregate/native IgG) (fold)
Give the value, in units of fold, as a plain number.

Incoming: Output reported Fluorescence enhancement (aggregate/native IgG) of the molecule Cc1ccc2c(c1)sc(-c1ccc(N(C)C)cc1)[n+]2C.[Cl-] [Thioflavin-T, Thioflavin T, reference compound] on goat-anti-mouse IgG aggregate.
Outgoing: 3.1

Incoming: Output reported Fluorescence enhancement (aggregate/native IgG) of the molecule CCN(CC)c1ccc(/C=C/c2cc[n+](CCCCCCCCCC[n+]3ccc(/C=C/c4ccc(N(CC)CC)cc4)c(C)c3)cc2C)cc1 on goat-anti-mouse IgG aggregate.
Outgoing: 11.2

Incoming: Output reported Fluorescence enhancement (aggregate/native IgG) of the molecule Cc1c[n+](CCCCCCCCCC[n+]2ccc(/C=C/c3ccc(N(C)C)cc3)c(C)c2)ccc1/C=C/c1ccc(N(C)C)cc1 on goat-anti-mouse IgG aggregate.
Outgoing: 17.5

Incoming: Output reported Fluorescence enhancement (aggregate/native IgG) of the molecule CN(C)c1ccc(/C=C/c2cc[n+](CCCCCC[n+]3ccc(/C=C/c4ccc(N(C)C)cc4)cc3)cc2)cc1.CS(=O)(=O)[O-].CS(=O)(=O)[O-] on goat-anti-mouse IgG aggregate.
Outgoing: 16.7

* * *

- Tested on: goat-anti-mouse IgG aggregate
- Test protocol: Fluorescence enhancement (aggregate/native IgG) in the presence of excipients
- Type: binding
- Run conditions: Trehalose, 600 mM; 2.8 μM IgG, 0.625 μM dye
The following molecules are shown together with reported Fluorescence enhancement (aggregate/native IgG) values.
Give the value, in units of fold, as a plain number.

Sample answers from the record:
{"Molecule": "CCN(CC)c1ccc(/C=C/c2cc[n+](CCCCCCCCCC[n+]3ccc(/C=C/c4ccc(N(CC)CC)cc4)c(C)c3)cc2C)cc1", "Numeric result": 18.9}
{"Molecule": "Cc1c[n+](CCCCCCCCCC[n+]2ccc(/C=C/c3ccc(N(C)C)cc3)c(C)c2)ccc1/C=C/c1ccc(N(C)C)cc1", "Numeric result": 30.4}
{"Molecule": "Cc1ccc2c(c1)sc(-c1ccc(N(C)C)cc1)[n+]2C.[Cl-] [Thioflavin-T, Thioflavin T, reference compound]", "Numeric result": 4.8}

Turning to the following molecule.
Incoming: Give the reported value of Fluorescence enhancement (aggregate/native IgG) for this record: CN(C)c1ccc(/C=C/c2cc[n+](CCCCCC[n+]3ccc(/C=C/c4ccc(N(C)C)cc4)cc3)cc2)cc1.CS(=O)(=O)[O-].CS(=O)(=O)[O-]
Outgoing: 30.1

* * *

- Target or system: recombinant human alpha-synuclein (ASN) aggregate (Homo sapiens)
- Construct: purchased Sigma-Aldrich
- Test protocol: Fluorescence excitation and emission spectra of dye in the presence of aggregated alpha-synuclein
- Format: binding
- Run conditions: 1 μM aggregated ASN, 50 mM Tris-HCl, pH 7.8, 10 μM dye
The following compounds are shown together with reported In the presence of aggregate: Excitation wavelength values.
Give the value, in units of nm, as a plain number.

Sample answers from the record:
{"Input smiles": "CCN(CC)c1ccc(/C=C/c2cc[n+](CCCCCCCCCC[n+]3ccc(/C=C/c4ccc(N(CC)CC)cc4)c(C)c3)cc2C)cc1", "Numeric result": 515}
{"Input smiles": "CN(C)c1ccc(/C=C/c2cc[n+](Cc3ccccc3C[n+]3ccc(/C=C/c4ccc(N(C)C)cc4)cc3)cc2)cc1.[Br-].[Br-]", "Numeric result": 550}
{"Input smiles": "CN(C)c1ccc(/C=C/c2cc[n+](CCCCCC[n+]3ccc(/C=C/c4ccc(N(C)C)cc4)cc3)cc2)cc1.CS(=O)(=O)[O-].CS(=O)(=O)[O-]", "Numeric result": 516}
{"Input smiles": "Cc1c[n+](CCCCCCCCCC[n+]2ccc(/C=C/c3ccc(N(C)C)cc3)c(C)c2)ccc1/C=C/c1ccc(N(C)C)cc1", "Numeric result": 511}

Turning to the following compound.
Incoming: Give the reported value of In the presence of aggregate: Excitation wavelength for this record: CCN(CC)c1ccc(/C=C/c2cc[n+](CCCC[n+]3ccc(/C=C/c4ccc(N(CC)CC)cc4)cc3)cc2)cc1.[I-].[I-]
Outgoing: 535

* * *

- Test protocol: Fluorescence excitation and emission spectra of dye freely dissolved in buffer
- Format: physicochemical
- Run conditions: 50 mM Tris-HCl, pH 7.8, 10 μM dye, room temperature
Attribute measured: Dye freely dissolved in buffer: Emission wavelength (nm)
Give the value, in units of nm, as a plain number.

Sample answers from the record:
{"Input smiles": "CN(C)c1ccc(/C=C/c2cc[n+](CCCCCC[n+]3ccc(/C=C/c4ccc(N(C)C)cc4)cc3)cc2)cc1.CS(=O)(=O)[O-].CS(=O)(=O)[O-]", "Unit string": "nm", "Numeric result": 613}
{"Input smiles": "CCN(CC)c1ccc(/C=C/c2cc[n+](CCCCCCCCCC[n+]3ccc(/C=C/c4ccc(N(CC)CC)cc4)c(C)c3)cc2C)cc1", "Unit string": "nm", "Numeric result": 612}
{"Input smiles": "CCN(CC)c1ccc(/C=C/c2cc[n+](CCOCC[n+]3ccc(/C=C/c4ccc(N(CC)CC)cc4)cc3)cc2)cc1.[I-].[I-]", "Unit string": "nm", "Numeric result": 614}

Turning to the following molecule.
Incoming: Give the reported value of Dye freely dissolved in buffer: Emission wavelength for this record: Cc1c[n+](CCCCCCCCCC[n+]2ccc(/C=C/c3ccc(N(C)C)cc3)c(C)c2)ccc1/C=C/c1ccc(N(C)C)cc1
Outgoing: 611
